Test system: UO-31 renal
Assay: NCI tumour cell line growth inhibition, 48 h
property-label: TGI

{"molecule": "O=C(CC(=O)c1cccc([N+](=O)[O-])c1)C(=O)Nc1nc([N+](=O)[O-])cs1", "target-desc": "UO-31 renal", "result": "> 100 µM"}
{"molecule": "Cc1cccc2c1ccc1c3occ(C)c3c(=O)oc21", "target-desc": "UO-31 renal", "result": "> 100 µM"}
{"molecule": "CN/N=C(/CC(=O)c1sc(-n2nc(-c3ccccc3)cc2-c2ccccc2)nc1C)C(=O)Nc1ccc(Cl)c(Cl)c1", "target-desc": "UO-31 renal", "result": "> 100 µM"}

Give TGI for the following molecule: O=C(O)c1nc2cc(C(F)(F)F)ccc2[nH]c1=O
> 100 µM

Look up and state reported TGI for COc1cc2c(cc1OC)C1(c3ccccc3)ON=C(c3ccccc3)N1CS2 (stereo unspecified)
> 100 µM

Specify TGI for Nc1nc(Sc2ccc([N+](=O)[O-])cn2)c2[nH]cnc2n1 and stop.
24.7 µM

----------
Test system: OVCAR-5 ovarian
Assay: NCI tumour cell line growth inhibition, 48 h
property-label: TGI

{"compound": "C=CCN1C[C@@H](C)N([C@@H](c2ccccc2)c2ccc(C(=O)N(CC)CC)cc2)C[C@@H]1C", "TGI": "> 100 µM"}
{"compound": "NN/C(=N\\S(=O)(=O)c1cccc2nsnc12)Nc1ccc(Cl)cc1", "TGI": "> 100 µM"}
{"compound": "CCC(C)C(NC(=O)c1c2ccccc2nc2ccccc12)C(=O)O (stereo not given)", "TGI": "> 100 µM"}

Please supply the value of reported TGI for the item Cc1csc(-c2ccc3c(c2)COC3(CCCN(C)C)c2ccc(F)cc2)c1 (stereo not given)
3.05 µM

Give the value of TGI reported for the following: CCC[CH2][Ge]([CH2]CCC)([CH2]CCC)[O]C(=O)C(OC(C)=O)c1ccccc1 (stereo not given)
17.5 µM

Consider the compound C=CCCCCn1c2ccccc2c2c(C)c3c[n+](C)ccc3c(C)c21 . State its measured TGI.
3.26 µM

Retrieve TGI measured for O=C(CC(=O)c1cccc([N+](=O)[O-])c1)C(=O)Nc1nc([N+](=O)[O-])cs1 and print it.
> 100 µM

Item Nc1ccc(-c2nc3ccccc3s2)cc1I : provide TGI
> 100 µM

Write down TGI measured for item Cc1cn(C2CC(N=[N+]=[N-])C(C(=O)O)O2)c(=O)[nH]c1=O (stereo not given)
> 100 µM

Note TGI for the compound shown: CN/N=C(/CC(=O)c1sc(-n2nc(-c3ccccc3)cc2-c2ccccc2)nc1C)C(=O)Nc1ccc(Cl)c(Cl)c1
69.6 µM

Find the measured TGI of COc1cc(S(=O)(=O)Nc2ccc(-c3csc(/N=C\C=C\c4ccccc4)n3)cc2)ccc1Cl and report it.
> 100 µM

Indicate its recorded TGI; the compound in question is Cc1cc(S(=O)(=O)Nc2nc(N)nc(N(C)C)n2)c(SC(C(=O)O)c2ccccc2)cc1Cl (stereo not given)
> 10 µM

Write down TGI measured for item O=C(Nc1ccc(Cl)cc1F)c1cc(Cl)ccc1O
> 100 µM

Recall and state the measured TGI for CN(C)C=Nc1c(Br)cc(Br)c2nonc12 .
> 100 µM

Return TGI for the following compound: Nc1ccc(-c2nc3ccc(Cc4ccc5nc(-c6ccc(N)cc6)oc5c4)cc3o2)cc1
> 100 µM

Tell me its TGI given CC(=O)NC(CCCOC(C)=O)C(=O)NC(CCCOC(C)=O)C(=O)NC(CCCOC(C)=O)C(=O)NC(Cc1ccc([N+](=O)[O-])cc1)C(=O)NCC(=O)OCc1ccccc1 (stereo not given) as the entry.
> 100 µM

Consider the compound O=C(NCCCCCCNC(=O)NC1OCC(O)C(O)C1O)NC1OCC(O)C(O)C1O (stereo not given) and give its recorded TGI.
> 100 µM

Entry source: PubChem BioAssay (NCI)
